tested on: Escherichia coli TOP10; experiment: shrunken log2 fold change of peptide-encoding DNA abundance (4.5 h post-induction vs induction); higher = less antimicrobial activity (less host growth inhibition); details: time post-induction: 4.5 h; library: site-saturation at positions 5, 18, 19, 20
Measured property: shrunken log2 fold change

Chain sequence: RRIRSRPPRLPRPRPRPFREPRP
Endpoint value: 0.0536

Chain sequence: RRIRNRPPRLPRPRPRPAAMPRP
Endpoint value: -0.223

Chain sequence: RRIRCRPPRLPRPRPRPEVMPRP
Endpoint value: -0.0567

Chain sequence: RRIRVRPPRLPRPRPRPENIPRP
Endpoint value: -0.125

Chain sequence: RRIRLRPPRLPRPRPRPAGFPRP
Endpoint value: 0.46

Chain sequence: RRIRSRPPRLPRPRPRPSACPRP
Endpoint value: -0.0945

Chain sequence: RRIRWRPPRLPRPRPRPDYPPRP
Endpoint value: -0.169

Chain sequence: RRIRPRPPRLPRPRPRPEWMPRP
Endpoint value: 0.0362

Chain sequence: RRIRYRPPRLPRPRPRPDFDPRP
Endpoint value: -0.0161

Chain sequence: RRIRYRPPRLPRPRPRPSSTPRP
Endpoint value: -0.158

Chain sequence: RRIRGRPPRLPRPRPRPLSTPRP
Endpoint value: 1.13

Chain sequence: RRIRLRPPRLPRPRPRPCNQPRP
Endpoint value: -1.15

Chain sequence: RRIRTRPPRLPRPRPRPHRWPRP
Endpoint value: -0.254

Chain sequence: RRIRERPPRLPRPRPRPTFCPRP
Endpoint value: -0.0701

Chain sequence: RRIRCRPPRLPRPRPRPIWSPRP
Endpoint value: 0.162

Chain sequence: RRIRHRPPRLPRPRPRPLKEPRP
Endpoint value: -0.0179

Chain sequence: RRIRERPPRLPRPRPRPHFSPRP
Endpoint value: 0.061

Chain sequence: RRIRERPPRLPRPRPRPHRKPRP
Endpoint value: -0.0945

Chain sequence: RRIRPRPPRLPRPRPRPKNKPRP
Endpoint value: -0.187

Chain sequence: RRIRQRPPRLPRPRPRPYESPRP
Endpoint value: -0.261

Chain sequence: RRIRGRPPRLPRPRPRPLFKPRP
Endpoint value: 0.337

Chain sequence: RRIRWRPPRLPRPRPRPMFKPRP
Endpoint value: 0.0191

Chain sequence: RRIRPRPPRLPRPRPRPDPCPRP
Endpoint value: -0.0908

Chain sequence: RRIRSRPPRLPRPRPRPQNSPRP
Endpoint value: -0.207

Chain sequence: RRIRERPPRLPRPRPRPKTDPRP
Endpoint value: -0.497

Chain sequence: RRIRMRPPRLPRPRPRPKHAPRP
Endpoint value: 3.03

Chain sequence: RRIRIRPPRLPRPRPRPNMPPRP
Endpoint value: -0.611

Chain sequence: RRIRERPPRLPRPRPRPCYLPRP
Endpoint value: -1.07

Chain sequence: RRIRLRPPRLPRPRPRPMVEPRP
Endpoint value: -0.0178

Chain sequence: RRIRSRPPRLPRPRPRPFDEPRP
Endpoint value: 0.0719

Chain sequence: RRIRDRPPRLPRPRPRPHNFPRP
Endpoint value: 0.0112

Chain sequence: RRIRVRPPRLPRPRPRPASCPRP
Endpoint value: -0.0873

---

test system: Escherichia coli TOP10; test: shrunken log2 fold change of peptide-encoding DNA abundance (4.5 h post-induction vs induction); higher = less antimicrobial activity (less host growth inhibition); settings: time post-induction: 4.5 h; library: site-saturation at positions 5, 18, 19, 20;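 note: peptides expressed intracellularly from a pBAD plasmid library in pooled LB shake-flask culture, induced with 0.3% L-arabinose, DNA abundance read by NGS, three biological replicates, DESeq2 with apeglm shrinkage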
Measured property: shrunken log2 fold change

Chain sequence: RRIRFRPPRLPRPRPRPRWNPRP
Measured property: shrunken log2 fold change
Endpoint value: 0.00853

Chain sequence: RRIRCRPPRLPRPRPRPMFQPRP
Measured property: shrunken log2 fold change
Endpoint value: -0.151

Chain sequence: RRIRSRPPRLPRPRPRPSDNPRP
Measured property: shrunken log2 fold change
Endpoint value: -0.249

Chain sequence: RRIRIRPPRLPRPRPRPTVAPRP
Measured property: shrunken log2 fold change
Endpoint value: 0.334

Chain sequence: RRIRQRPPRLPRPRPRPAIIPRP
Measured property: shrunken log2 fold change
Endpoint value: -0.0528

Chain sequence: RRIRSRPPRLPRPRPRPCEAPRP
Measured property: shrunken log2 fold change
Endpoint value: 0.389

Chain sequence: RRIRARPPRLPRPRPRPIMPPRP
Measured property: shrunken log2 fold change
Endpoint value: 0.167

Chain sequence: RRIRGRPPRLPRPRPRPASKPRP
Measured property: shrunken log2 fold change
Endpoint value: 0.453

Chain sequence: RRIRHRPPRLPRPRPRPHWWPRP
Measured property: shrunken log2 fold change
Endpoint value: 0.0507

Chain sequence: RRIRRRPPRLPRPRPRPEQMPRP
Measured property: shrunken log2 fold change
Endpoint value: 0.19

Chain sequence: RRIRNRPPRLPRPRPRPKAKPRP
Measured property: shrunken log2 fold change
Endpoint value: 0.146

Chain sequence: RRIRCRPPRLPRPRPRPYPGPRP
Measured property: shrunken log2 fold change
Endpoint value: -0.0268

Chain sequence: RRIRMRPPRLPRPRPRPGFIPRP
Measured property: shrunken log2 fold change
Endpoint value: 0.192

Chain sequence: RRIRKRPPRLPRPRPRPWVTPRP
Measured property: shrunken log2 fold change
Endpoint value: 0.000269

Chain sequence: RRIRDRPPRLPRPRPRPSTCPRP
Measured property: shrunken log2 fold change
Endpoint value: -0.0465

Chain sequence: RRIRERPPRLPRPRPRPPYIPRP
Measured property: shrunken log2 fold change
Endpoint value: -0.252

Chain sequence: RRIRHRPPRLPRPRPRPEAQPRP
Measured property: shrunken log2 fold change
Endpoint value: -0.00183

Chain sequence: RRIRRRPPRLPRPRPRPFSWPRP
Measured property: shrunken log2 fold change
Endpoint value: -0.469

Chain sequence: RRIRPRPPRLPRPRPRPTTGPRP
Measured property: shrunken log2 fold change
Endpoint value: 0.12

Chain sequence: RRIRFRPPRLPRPRPRPKNFPRP
Measured property: shrunken log2 fold change
Endpoint value: 0.0482

Chain sequence: RRIRYRPPRLPRPRPRPHWYPRP
Measured property: shrunken log2 fold change
Endpoint value: -1.02

Chain sequence: RRIRYRPPRLPRPRPRPAKVPRP
Measured property: shrunken log2 fold change
Endpoint value: 0.00738

Chain sequence: RRIRCRPPRLPRPRPRPQPCPRP
Measured property: shrunken log2 fold change
Endpoint value: 0.0038

Chain sequence: RRIRVRPPRLPRPRPRPLNEPRP
Measured property: shrunken log2 fold change
Endpoint value: -0.0647

Chain sequence: RRIRYRPPRLPRPRPRPAQIPRP
Measured property: shrunken log2 fold change
Endpoint value: -0.347

Chain sequence: RRIRFRPPRLPRPRPRPDLAPRP
Measured property: shrunken log2 fold change
Endpoint value: 0.0811

Chain sequence: RRIRSRPPRLPRPRPRPNMYPRP
Measured property: shrunken log2 fold change
Endpoint value: -0.635

Chain sequence: RRIRPRPPRLPRPRPRPTTCPRP
Measured property: shrunken log2 fold change
Endpoint value: 0.262

Chain sequence: RRIRIRPPRLPRPRPRPIWSPRP
Measured property: shrunken log2 fold change
Endpoint value: 0.025

Chain sequence: RRIRVRPPRLPRPRPRPLSNPRP
Measured property: shrunken log2 fold change
Endpoint value: -0.413

Chain sequence: RRIRWRPPRLPRPRPRPQTNPRP
Measured property: shrunken log2 fold change
Endpoint value: 0.14

Chain sequence: RRIRPRPPRLPRPRPRPGGGPRP
Measured property: shrunken log2 fold change
Endpoint value: 0.728

Hello, the source for this data is the supplement of paper PMC9112550, in case you need it.
